# System: OVCAR-5 ovarian
# testSummary: NCI tumour cell line growth inhibition, 48 h
metricName: TGI

O=c1oc2cc(O)ccc2cc1-c1nc2ccccc2o1 ... > 100 µM
Cc1nc2sc(C(=O)Nc3cccc4c3OCCO4)c(N)c2cc1C(C)O (stereo not drawn) ... > 100 µM

# ---- query compound ----
May I ask what TGI has been recorded for Nc1nc(N)c2ncn(Cc3ccccc3CO)c2n1 ? > 100 µM

###

# Tested on: SW-620 colon
# testSummary: NCI tumour cell line growth inhibition, 48 h
metricName: TGI

Example entries begin here.
CCOC(=O)C(c1ccsc1)P(=O)(OCC)OCC (stereo not given) ... 30.8 µM
COc1ccc(C2=NC(CO)[C@H](c3ccccc3)O2)cc1OC (stereo not given in full) ... > 100 µM
O=C(NCCc1nccs1)c1cnc2c(S)cccc2c1 ... 28.7 µM
Cc1cc(NS(=O)(=O)c2ccc(NC(=O)c3ccc4nc5ccccc5c(Nc5ccc(S(N)(=O)=O)cc5)c4c3)cc2)no1 ... 72.3 µM
COc1ccccc1NC(=S)Nc1ccccn1 ... > 100 µM

# ---- query molecule ----
May I ask what TGI has been recorded for CCOC(=O)c1ccc(N[C@@H]2c3cc4c(cc3C(c3cc(OC)c(O)c(OC)c3)[C@H]3C(=O)OCC32)OCO4)cc1 (stereo not given in full) ? 28.4 µM

###

# Test system: CAKI-1 renal
# testSummary: NCI tumour cell line growth inhibition, 48 h
metricName: TGI

Example entries begin here.
NC(N)=N/N=C/c1c(Cl)nc2n1CCS2 ... > 100 µM
CCOC(=O)/C(=C\n1c(=O)sc2ccccc21)C(=O)c1ccccc1 ... 64.7 µM

# ---- query compound ----
May I ask what TGI has been recorded for COC(=O)c1ccc(C)cc1C1CN=NC12Cc1c(C)cccc1C2=O (stereo not drawn) ? > 100 µM

###

Measured TGI by item
# System: SNB-19 CNS
# testSummary: NCI tumour cell line growth inhibition, 48 h

Example entries begin here.
O=C1C=CC(=O)N1c1ccc2ccccc2c1 ... > 100 µM
CC(=O)NC1=C(NCCO)C(=O)c2ccccc2C1=O ... > 50 µM
Cc1nsc2cc(Cl)n(C)c(=O)c12 ... > 100 µM
CC1(C)C2CCC1(C)C(NC(=O)COCCOCC(N)=O)C2 (stereo not drawn) ... > 100 µM
COc1cc(Br)c(/C=N/N=C(\N)NO)cc1OC ... > 100 µM

May I ask what TGI has been recorded for CSc1nc2c(ncn2C2OC(CO)C(O)C(O)C2O)c(=O)n1C (stereo not drawn) ? > 100 µM

May I ask what TGI has been recorded for Nc1nc(N)c2ncn(Cc3ccccc3CO)c2n1 ? > 100 µM

May I ask what TGI has been recorded for COc1cc2c(c(OC)c1OC)[C@@H]1CCCCC[C@@H]1CCC2=O ? > 100 µM

May I ask what TGI has been recorded for CCn1cnc(C[C@H](NC(=O)[C@@H](NC(=O)Nc2cc(C(F)(F)F)cc(C(F)(F)F)c2)C(C)(C)C)C(=O)OC)c1 ? > 10 µM

May I ask what TGI has been recorded for CCCCCCCCC#CCCCCCCC(F)C(=O)O (stereo not drawn) ? > 100 µM

May I ask what TGI has been recorded for NC(=S)N/N=C1\CCc2ccccc2C1 ? > 100 µM

May I ask what TGI has been recorded for CCSc1c2cc(OC)ccc2nc2ccc(OC)cc12 ? > 100 µM

May I ask what TGI has been recorded for COc1cc(CNc2ccc(C)cc2)cc(OC)c1OC ? > 100 µM

###

Measured TGI by item
# Test system: HCC-2998 colon
# testSummary: NCI tumour cell line growth inhibition, 48 h
Unit µM implied. Number only.

Example entries begin here.
CC12CC(Br)(Br)C(=O)C3C1CCCC32 ... 13.8
O=[N+]([O-])c1cc2c(ccc3ccccc32)o1 ... 0.823
CC(C)(C)c1ccc(OCCCCCCCN2CCNCC2)cc1 ... 3.22

May I ask what TGI has been recorded for COc1cnc2oc3ccc(O)cc3c2c1-c1ccccc1 ? 92.1

May I ask what TGI has been recorded for O=C(CC(=O)n1nc(-c2ccccc2)c(N=Nc2ccc([N+](=O)[O-])cc2)c1-c1ccccc1)Nc1ccc(Cl)cc1 ? 91.4

May I ask what TGI has been recorded for CN1CC[C@@]2(c3cccc(O)c3)CC(=O)/C(=C/c3ccc(Cl)c(Cl)c3)[C@H]1C2 ? 3.37

May I ask what TGI has been recorded for CC1=NN(c2nc(N)nc(CCl)n2)C(C)(C)C1 ? 66.1

May I ask what TGI has been recorded for CCCCCCCCCCCCCCCCNc1nc(=O)n(C2CC(O)C(COP(=O)(O)OC3CC(n4cc(F)c(=O)[nH]c4=O)OC3CO)O2)cc1F (stereo unspecified) ? 11

May I ask what TGI has been recorded for Nc1ccccc1SC(CC(=O)c1ccccc1)c1c(Cl)cccc1Cl (stereo unspecified) ? 5.73

May I ask what TGI has been recorded for CC(=O)O[C@H]1[C@@H](N2CCCCC2)C[C@H]2[C@@H]3CC=C4C[C@@H](N5CCCC5)CC[C@]4(C)[C@H]3CC[C@@]21C ? 34.4

###

Measured TGI by item
# Test system: OVCAR-4 ovarian
# testSummary: NCI tumour cell line growth inhibition, 48 h

Example entries begin here.
CCCCCCCCC#CCCCCCCC(F)C(=O)O (configuration not stated) ... > 100 µM
O=C1NCC2(CCN(CC3COc4ccccc4O3)CC2)N1c1ccccc1 (configuration not stated) ... > 100 µM
CSc1cc(Cl)c(C(=O)Nc2ccccc2)cc1S(=O)(=O)n1cc[nH]c1=O ... > 100 µM
COc1ccc(-n2c(C)nc3ccc(NC4OC(COC(C)=O)C(OC(C)=O)C(OC(C)=O)C4OC(C)=O)cc3c2=O)cc1 (configuration not stated) ... > 100 µM

TGI of COc1cccc(/C=N/[N+](C)(C)C)c1O on OVCAR-4 ovarian? > 10 µM

TGI of CC[P+](C)(C)CC on OVCAR-4 ovarian? > 100 µM

TGI of CC(=O)OC1CCC2(C)C(=CCC3C2CCC2(C)C3CC3OC4(CCC(C)CN4)C(C)C32)C1 (configuration not stated) on OVCAR-4 ovarian? > 100 µM

TGI of COC(=O)C(C(=O)C(=O)Nc1nc2ccc(OC)cc2s1)c1cnc2ccccc2n1 (configuration not stated) on OVCAR-4 ovarian? > 100 µM

TGI of COc1ccc(-c2cc(-c3ccco3)c(C#N)c(=O)n2C2OC(COC(C)=O)C(OC(C)=O)C(OC(C)=O)C2OC(C)=O)cc1 (configuration not stated) on OVCAR-4 ovarian? > 100 µM

TGI of CN(COC(=O)C(C)(C)C)c1nc(N(C)COC(=O)C(C)(C)C)nc(N(C)COC(=O)C(C)(C)C)n1 on OVCAR-4 ovarian? > 100 µM

TGI of O=C(NC1C(=O)NC(CCc2ccccc2)NC1=O)OCc1ccccc1 (configuration not stated) on OVCAR-4 ovarian? > 100 µM

TGI of O=C1c2ccccc2C(=O)N1CCN(CCN1C(=O)c2ccccc2C1=O)Cc1ccccc1 on OVCAR-4 ovarian? > 100 µM

TGI of O=C1Sc2sc(=S)sc2SC1c1ccccc1 (configuration not stated) on OVCAR-4 ovarian? > 31.6 µM

TGI of Fc1nc(-c2c3ccccc3c3sc4ccccc4n23)nc(N2CCOCCOCCOCCOCC2)n1 on OVCAR-4 ovarian? > 100 µM

TGI of C(#Cc1ccccc1C#Cc1cnccn1)c1cnccn1 on OVCAR-4 ovarian? > 100 µM

TGI of O=C1Nc2ccccc2C1(O)Cc1ccccn1 (configuration not stated) on OVCAR-4 ovarian? > 100 µM

TGI of c1ccc2c(c1)n1c(N3CCCC3)[n+]3ccccc3c1c1c3cccc[n+]3c(N3CCCC3)n21 on OVCAR-4 ovarian? > 100 µM

TGI of COc1ccc2[nH]c(=O)cc(C)c2c1[N+](=O)[O-] on OVCAR-4 ovarian? > 100 µM

TGI of COC(=O)N1C=CC2=C(C)C3Nc4ccccc4C3C(C)=C2C1 (configuration not stated) on OVCAR-4 ovarian? 11.3 µM

###

# Tested on: LXFL 529 NSCLC
# testSummary: NCI tumour cell line growth inhibition, 48 h
Measured TGI by item

Example entries begin here.
CC1=C(C(=O)Nc2cc(F)c(F)cc2F)C(c2ccc(N(C)C)cc2)C(C(=O)Nc2cc(F)c(F)cc2F)=C(C)N1 ... 63 µM
CC1(C)CCOC(Sc2ccccc2)C1 (stereo not drawn) ... > 100 µM

# ---- query compound ----
May I ask what TGI has been recorded for CC[C@@]1(O)C(=O)OCc2c1cc1n(c2=O)Cc2cc3c(N)c(OC)ccc3nc2-1 ? > 25.6 µM
